Data credit: ChEMBL document CHEMBL2346505

tested on: CYP1B1 over CYP1A1; experiment: Selectivity ratio for CYP1B1 (unknown origin) over CYP1A1 (unknown origin); type: ADME; details: human
RESULT_TYPE: selectivity ratio
# answer = number (no unit)

Endpoint output: selectivity ratio of C#CCOc1ccc(-c2cc(=O)c3c(O)cccc3o2)cc1 . Value?
100

----------
Molecular target: UniProt:P04798
Sequence (P04798 whole entry): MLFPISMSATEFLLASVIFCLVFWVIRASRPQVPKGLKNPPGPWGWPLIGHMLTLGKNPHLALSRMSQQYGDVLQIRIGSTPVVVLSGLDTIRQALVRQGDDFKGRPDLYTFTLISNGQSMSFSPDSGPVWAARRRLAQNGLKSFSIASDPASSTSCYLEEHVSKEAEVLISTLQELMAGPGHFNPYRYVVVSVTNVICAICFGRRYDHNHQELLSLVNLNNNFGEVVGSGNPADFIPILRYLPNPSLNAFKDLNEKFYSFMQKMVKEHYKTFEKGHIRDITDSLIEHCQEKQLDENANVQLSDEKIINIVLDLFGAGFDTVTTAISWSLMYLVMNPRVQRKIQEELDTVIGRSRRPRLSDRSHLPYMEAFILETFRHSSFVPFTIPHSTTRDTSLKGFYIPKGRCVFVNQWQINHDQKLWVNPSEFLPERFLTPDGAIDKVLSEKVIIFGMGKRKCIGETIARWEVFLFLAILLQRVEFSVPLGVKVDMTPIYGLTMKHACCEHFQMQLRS
Kindly state pIC50 for each of the entries shown.
Note: pIC50 values are expressed as the negative base-10 logarithm of concentration in M.

State its pIC50 on UniProt:P04798: O=c1cc(-c2ccccc2)oc2ccc3ccccc3c12
7.27

State its pIC50 on UniProt:P04798: O=c1cc(-c2ccccc2)oc2c3c(cc(O)c12)OCC=C3
6.96

State its pIC50 on UniProt:P04798: O=c1cc(-c2ccccc2)oc2c3c(ccc12)OCC=C3
6.57

State its pIC50 on UniProt:P04798: O=c1cc(-c2ccccc2)oc2ccc3c(c12)OCC=C3
6.49

State its pIC50 on UniProt:P04798: C#CCOc1ccc(-c2cc(=O)c3c(ccc4ccccc43)o2)cc1
7.39

State its pIC50 on UniProt:P04798: O=c1cc(-c2ccccc2)oc2ccc3c(c12)C=CCO3
6.82

----------
Kindly state selectivity ratio for each of the entries shown.
tested on: CYP1A2 / CYP1A1; assay: Selectivity ratio of IC50 for CYP1A2 (unknown origin) to IC50 for CYP1A1 (unknown origin); type: ADME; conditions: human; read-out: Ratio IC50
# answer = number (no unit)

Endpoint output: selectivity ratio of O=c1cc(-c2ccccc2)oc2ccc3c(c12)OCC=C3 . Value?
3.5

Endpoint output: selectivity ratio of C#CCOc1ccc(-c2cc(=O)c3c(ccc4ccccc43)o2)cc1 . Value?
5

Endpoint output: selectivity ratio of O=c1cc(-c2ccccc2)oc2ccc3c(c12)C=CCO3 . Value?
5

Endpoint output: selectivity ratio of O=c1cc(-c2ccccc2)oc2ccc3ccccc3c12 . Value?
5

----------
target: CYP1B1 (Homo sapiens, UniProt Q16678); test: Inhibition of CYP1B1 (unknown origin) dealkylation activity at 0.1 uM after 5 mins by spectrofluorimetric analysis relative to control; type: ADME
Sequence (Q16678 whole entry): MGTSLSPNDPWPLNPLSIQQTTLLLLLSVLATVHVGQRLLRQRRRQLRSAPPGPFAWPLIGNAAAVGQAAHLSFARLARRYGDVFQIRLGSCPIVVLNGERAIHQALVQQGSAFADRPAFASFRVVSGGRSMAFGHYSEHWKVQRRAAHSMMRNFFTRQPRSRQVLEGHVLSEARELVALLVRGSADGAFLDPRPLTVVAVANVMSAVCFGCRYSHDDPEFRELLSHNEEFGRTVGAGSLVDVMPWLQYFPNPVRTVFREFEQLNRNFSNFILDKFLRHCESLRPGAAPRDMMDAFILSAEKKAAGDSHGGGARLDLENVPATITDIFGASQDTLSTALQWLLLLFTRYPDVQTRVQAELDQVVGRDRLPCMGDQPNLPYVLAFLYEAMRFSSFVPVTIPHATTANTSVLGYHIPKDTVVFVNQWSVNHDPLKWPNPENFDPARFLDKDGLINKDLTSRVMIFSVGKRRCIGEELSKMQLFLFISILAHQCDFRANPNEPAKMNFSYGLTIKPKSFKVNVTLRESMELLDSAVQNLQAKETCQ
RESULT_TYPE: inhibition at 5 min, 0.1 µM (%)
Please give a number only; it is taken to be in %.

Endpoint output: inhibition at 5 min, 0.1 µM of C#CCOc1ccc(-c2cc(=O)c3c(O)cccc3o2)cc1 . Value?
50
